test system: Adenovirus subtype 8 (ATCC #VR-1640); test: Adenoviral replication titer reduction, drug added after infection (control protocol); type: cell-based; settings: unidentified adenovirus; Adeno-8; estimated, molar basis (279 g/mol)
Observation type: IC50
The answer consists of two parts: a number and, after it, its unit.

(Q) Give a short answer stating reported IC50 for Nc1ccn(C[C@@H](CO)OCP(=O)(O)O)c(=O)n1 .
(A) 0.112 µM
